FYI, the data here is from patent US8617614B2.

- Test Details: Blood concentration measurement test
- Assay type: in vivo
- Test Conditions: male, Crl:CD (Sprague-Dawley), rat, plasma, sc, 10 mg/kg, Test Group 3: present drug s.c. 10 mg/kg, 2 hours
- Experimental: Male Crl:CD (Sprague-Dawley) rats (SPF; Charles River Japan; 8-week-old) were subcutaneously administered the various preparations (microspheres) shown in Table 9 below at a dose of 5 mL/kg under non-fasting conditions. […] The blood thus obtained was centrifuged at 12,000 rpm for 2 minutes, and the supernatant was collected as plasma. Blood concentration measurements of the present drug in the resulting plasma were carried out by a LC/MS/MS method. […]
Outcome Measure: concentration at 2 hours (ng/mL)
Give just the numeric value; ng/mL need not be written.

The reported concentration at 2 hours of the compound O=C(O)COc1cccc2c1CCC=C2CCO/N=C(\c1ccccc1)c1cccnc1 was 1400
